# PROCEDURE_SUMMARY: Cytotoxicity against human CEM cells expressing GFP after 48 to 72 hrs by MTT assay
# Type: cell-based
# RUN_PARAMETERS: CEM cells expressing GFP (CCRF-CEM)
Field: label. Allowed values: 1 (yes) (CC50 < 100 µM) or 0 (no) (CC50 >= 100 µM).

Exam item: Is 100 µM strictly greater than the molecule's reported CC50? molecule: CC(C)CCOc1cc(O)nc2ccccc12
Marked response: 0 (no)

Exam item: Is 100 µM strictly greater than the molecule's reported CC50? molecule: CC(C)=CCCC1(CCC=C(C)C)C(=O)Nc2ccccc2C1=O
Marked response: 1 (yes)

Exam item: Is 100 µM strictly greater than the molecule's reported CC50? molecule: C=CC(C)(C)C1(CC=C(C)C)C(=O)Nc2ccccc2C1=O (configuration not stated)
Marked response: 1 (yes)

Exam item: Is 100 µM strictly greater than the molecule's reported CC50? molecule: CC(C)=CCC1(CC=C(C)C)C(=O)Nc2ccccc2C1=O
Marked response: 1 (yes)

Exam item: Is 100 µM strictly greater than the molecule's reported CC50? molecule: CCCC1(CCC)C(=O)Nc2ccccc2C1=O
Marked response: 0 (no)

Exam item: Is 100 µM strictly greater than the molecule's reported CC50? molecule: CCCCOc1c(CCCC)c(O)nc2ccccc12
Marked response: 0 (no)

Exam item: Is 100 µM strictly greater than the molecule's reported CC50? molecule: CC(C)CCOc1c(CCC(C)C)c(O)nc2ccccc12
Marked response: 0 (no)

Exam item: Is 100 µM strictly greater than the molecule's reported CC50? molecule: CC(C)=CCOc1c(CC=C(C)C)c(O)nc2ccccc12
Marked response: 1 (yes)

Exam item: Is 100 µM strictly greater than the molecule's reported CC50? molecule: C#CCOc1c(CC#C)c(O)nc2ccccc12
Marked response: 0 (no)

Exam item: Is 100 µM strictly greater than the molecule's reported CC50? molecule: CC(C)=CCOc1cc(O)nc2ccccc12
Marked response: 1 (yes)

---

# PROCEDURE_SUMMARY: Therapeutic index, ratio of CC50 for human CEM cells expressing GFP to IC50 for Human immunodeficiency virus 1 NL4.3
# Format: cell-based, CCRF-CEM
# RUN_PARAMETERS: read-out: Ratio CC50/IC50
Field: label. Allowed values: class 1 (selectivity ratio < 7) or class 0 (selectivity ratio >= 7).

Exam item: Is 7 strictly greater than the compound's reported selectivity ratio? compound: CCCC1(CCC)C(=O)Nc2ccccc2C1=O
Marked response: class 1

Exam item: Is 7 strictly greater than the compound's reported selectivity ratio? compound: C#CCOc1cc(O)nc2ccccc12
Marked response: class 1

Exam item: Is 7 strictly greater than the compound's reported selectivity ratio? compound: C=CC(C)(C)C1(CC=C(C)C)C(=O)Nc2ccccc2C1=O (configuration not stated) [BUCHAPINE]
Marked response: class 0

Exam item: Is 7 strictly greater than the compound's reported selectivity ratio? compound: CC(C)=CCOc1c(CC=C(C)C)c(O)nc2ccccc12
Marked response: class 0

Exam item: Is 7 strictly greater than the compound's reported selectivity ratio? compound: C#CCOc1c(CC#C)c(O)nc2ccccc12
Marked response: class 0

Exam item: Is 7 strictly greater than the compound's reported selectivity ratio? compound: CC(C)CCOc1c(CCC(C)C)c(O)nc2ccccc12
Marked response: class 1

Exam item: Is 7 strictly greater than the compound's reported selectivity ratio? compound: CC(C)=CCCC1(CCC=C(C)C)C(=O)Nc2ccccc2C1=O
Marked response: class 0

Exam item: Is 7 strictly greater than the compound's reported selectivity ratio? compound: CCCCOc1c(CCCC)c(O)nc2ccccc12
Marked response: class 1

Exam item: Is 7 strictly greater than the compound's reported selectivity ratio? compound: CC(C)=CCC1(CC=C(C)C)C(=O)Nc2ccccc2C1=O
Marked response: class 0

Exam item: Is 7 strictly greater than the compound's reported selectivity ratio? compound: CC(C)=CCCOc1c(CCC=C(C)C)c(O)nc2ccccc12
Marked response: class 0

Exam item: Is 7 strictly greater than the compound's reported selectivity ratio? compound: CC(C)CCOc1cc(O)nc2ccccc12
Marked response: class 0

Exam item: Is 7 strictly greater than the compound's reported selectivity ratio? compound: CC(C)=CCOc1cc(O)nc2ccccc12
Marked response: class 0
